- target.or.test.system: PDE9 (PDE9A) (Homo sapiens, UniProt O76083)
- Construct: full-length recombinant human PDE9
- Sequence (O76083 whole entry): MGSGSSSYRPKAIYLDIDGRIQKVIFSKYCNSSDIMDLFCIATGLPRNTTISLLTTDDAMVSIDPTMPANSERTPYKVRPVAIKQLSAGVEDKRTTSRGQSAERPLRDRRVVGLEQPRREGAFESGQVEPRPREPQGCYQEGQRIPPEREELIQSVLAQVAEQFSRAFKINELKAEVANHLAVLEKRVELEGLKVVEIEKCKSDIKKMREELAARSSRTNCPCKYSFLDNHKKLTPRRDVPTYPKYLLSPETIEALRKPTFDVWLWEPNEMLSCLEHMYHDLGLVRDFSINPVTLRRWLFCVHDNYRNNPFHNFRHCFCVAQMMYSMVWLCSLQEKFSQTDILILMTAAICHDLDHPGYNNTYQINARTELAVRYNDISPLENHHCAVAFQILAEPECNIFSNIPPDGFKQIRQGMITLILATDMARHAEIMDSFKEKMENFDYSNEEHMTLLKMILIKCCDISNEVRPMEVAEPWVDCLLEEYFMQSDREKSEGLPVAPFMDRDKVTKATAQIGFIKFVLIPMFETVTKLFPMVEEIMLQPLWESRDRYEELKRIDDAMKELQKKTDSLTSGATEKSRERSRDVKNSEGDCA
- protocol.details: PDE-Glo phosphodiesterase luminescence assay with cGMP substrate, recombinant human PDE9A
measurement.name: IC50
Express your answer as a number followed by its unit.

Query block: Dear colleague, please send me the reported IC50 for CC(C)=CCc1c2c(c3occ(-c4ccc(OS(C)(=O)=O)c(OS(C)(=O)=O)c4)c(=O)c3c1O)C=CC(C)(C)O2 [DB987] when you can.
Result block: 5.35 nM
